# Test system: HS 578T breast
# experiment-summary: NCI tumour cell line growth inhibition, 48 h
property-name: TGI

COc1cc(C2SC(N)=Nc3c2c(C)nn3C(=O)Cc2ccccc2)cc(OC)c1OC (centres undefined)
> 100 µM
CN1CCN(Cn2nc(-c3ccccc3)n(/N=C/c3ccc(-c4ccc(Cl)cc4Cl)o3)c2=S)CC1
> 100 µM
COc1ccc(-c2nc(Nc3ccc(F)cc3)nc(Nc3ccc4c(c3)nc(C)n4Cc3ccccc3)n2)cc1
> 100 µM

Report TGI for each item below.
1. Cc1cc(C)c2c(=O)cc(-c3ccccc3)[nH]c2c1
2. COc1ccc(C(=O)O[C@@H]2CCN3CC[C@H](C)[C@H]23)cc1
3. Nc1n[nH]c2ccc([C@H]3[C@@H]4C5CCC(C5)[C@@H]4c4c(ccc5[nH]ncc45)N3S(=O)(=O)C3CC3)cc12 (some centres undefined)
4. Cc1cc(S(=O)(=O)Nc2n[nH]c(-c3ccc(Cl)cc3)c2C#N)c(S)cc1Cl
5. Fc1ccc(-c2nn3c(COc4ccccc4Cl)nnc3s2)cc1Oc1ccccc1
6. COc1ccccc1NC(=S)NNC(=O)c1cc(-c2ccccc2)nc2ccccc12

21.2 µM
> 100 µM
3.31 µM
> 100 µM
> 100 µM
50.2 µM

Parameters: items (list). Returns: TGI for each item.
1. CC(C)[C@]12O[C@H]1[C@@H]1O[C@]13[C@]1(O[C@H]1C[C@H]1C4=C(CC[C@@]13C)C(=O)OC4)[C@@H]2OC(=O)OC(C)(C)C
2. CCOC(=O)C(CC(C)C)NC(=O)C(N)Cc1ccc(N(CCCl)CCCl)cc1 (centres undefined)
3. CCOC(=O)c1cc2c(OC)cc(OC)cc2oc1=O
4. CC(=O)OCC(OC(C)=O)C(OC(C)=O)C(/C=N\Nc1nc2ccccc2c(=O)[nH]1)OC(C)=O (centres undefined)
5. COc1cc2c(OC)c3cc(C)oc(=O)c3c(O)c2c(O)c1-c1c(OC)cc2c(OC)c3cc(C)oc(=O)c3c(O)c2c1O

0.0713 µM
44.5 µM
> 100 µM
> 100 µM
> 100 µM

###

# System: CAKI-1 renal
# experiment-summary: NCI tumour cell line growth inhibition, 48 h
Each entry belongs to exactly one class, chosen by where its TGI falls: low-valued: < 8 µM; mid-valued: ≥ 8 µM and < 40 µM; high-valued: ≥ 40 µM

[N-]=[N+]=NCC(=O)c1c[nH]c(=O)[nH]c1=O
high-valued
O=C(CSc1nc2ccc([N+](=O)[O-])cc2[nH]1)Nc1ccc([N+](=O)[O-])cc1
low-valued
CN(CCNc1ccc(C(=N)N)cc1)c1ccc(C(=N)N)cc1
mid-valued

Which category fits this record: Cc1cc(C)c2c(=O)cc(-c3ccc(F)cc3)[nH]c2n1
high-valued

How about CC1(C)OP(=O)(c2ccccc2)C=C1Br (stereo not given) ?
high-valued

Field entry: CC(=O)OC12c3ccccc3C(c3ccccc31)C1C(=O)N(Nc3ccccc3)C(=O)C12 (stereo not given)
high-valued

Same thing, different compound: Cc1c(/C=N/NC(=S)Nc2ccc([N+](=O)[O-])cc2)c(=O)n(-c2ccccc2)n1C
mid-valued

What would you report for N#C/C(=C\c1ccc([N+](=O)[O-])cc1)n1nnc2cc(F)c(F)cc21 ?
low-valued
